- Target entity: UniProt P55212
- Protocol notes: inhibition of CASP6 peptide cleavage – biochemical, VEID-R110 fluorescence, cherry-pick, dose response (AID 720632)
Calls of active or inactive are those of the source.
Reported property: AC50

**Q:** Quick check: AC50 of "Cc1ccccc1Nc1nc(N)nc(COC(=O)c2ccc([N+](=O)[O-])o2)n1" ?
**A:** 47 µM (active)

**Q:** Cool, now "CC(=O)N1CCOc2ccc(S(=O)(=O)NCc3ccc(F)cc3)cc21"
**A:** 11.2 µM (active)

**Q:** "Cc1cc(NS(=O)(=O)c2ccc(NC(=O)COc3ccccc3[N+](=O)[O-])cc2)no1" , same question.
**A:** 10.5 µM (active)

**Q:** Please give the result for "O=C(O)c1cc(S(=O)(=O)Nc2ccc3c[nH]nc3c2)ccc1Br" too.
**A:** 14.5 µM (active)

**Q:** Same question for "Cc1ccc(NC(=O)CN(C)C(=O)c2cccc(-n3cccc3)c2)cc1" please.
**A:** 1.5 µM (active)

---

- Protocol notes: Luminescence Cell-Based Dose Confirmation HTS to Identify Activators of 5'UTR Stem-Loop Driven Alpha-Synuclein mRNA Translation in H4 Neuroglioblastoma Cells. [Related pubchem assays: 1829 (Project Summary), 1814 (Primary HTS)]
- Assay type: functional
Activity calls are given as the source filed them.
Answer each item with its documented EC50.

**Q:** What value of EC50 has been recorded for this entry: "Cc1cc(C)c2c(N)c3ccccc3nc2n1"
**A:** 3.6 µM (active)

**Q:** How about "CCc1ccc(-c2cn(C3CCCCC3)c(S)n2)cc1" ?
**A:** 67.1 µM (active)

**Q:** Further, for "CC(C)OC(=O)CC12CN(C)CC(CC(=O)OC(C)C)(CN(C)C1)C2=O" ?
**A:** 47.6 µM (active)

**Q:** Next up: "Cc1ccc(-c2nc3ncccc3o2)cc1NC(=O)c1ccc([N+](=O)[O-])o1"
**A:** > 120 µM (not active)

**Q:** Repeat with "Clc1cccc(Cl)c1/C=C/c1cc[nH]n1"
**A:** > 120 µM (not active)

**Q:** Subsequent entry: "O=C(c1cc(-c2ccc3c(c2)OCO3)on1)N1CCN(c2ccccc2)CC1"
**A:** 0.793 µM (active)

**Q:** Try this molecule too: "S=C(NCCN1CCOCC1)Nc1ccc(-c2nc3ccccc3[nH]2)cc1"
**A:** 16.3 µM (active)

**Q:** Param item: "c1ccc(NC2=Nc3ccccc3CC2)cc1"
**A:** 10.9 µM (active)

**Q:** Request: COc1ccc(C2=NOC(COC(=O)c3ccc4ccccc4n3)C2)cc1 (stereo not given)
**A:** 17.2 µM (active)

**Q:** Now try CC1CCc2c(nc3ncnn3c2NCCc2ccccc2F)C1 (stereo not given) .
**A:** > 120 µM (not active)

---

- Target entity: Corticotropin-releasing factor receptor 2/Corticotropin-releasing factor-binding protein (Homo sapiens, UniProt P24387+Q13324)
- Sequence (Q13324 whole entry): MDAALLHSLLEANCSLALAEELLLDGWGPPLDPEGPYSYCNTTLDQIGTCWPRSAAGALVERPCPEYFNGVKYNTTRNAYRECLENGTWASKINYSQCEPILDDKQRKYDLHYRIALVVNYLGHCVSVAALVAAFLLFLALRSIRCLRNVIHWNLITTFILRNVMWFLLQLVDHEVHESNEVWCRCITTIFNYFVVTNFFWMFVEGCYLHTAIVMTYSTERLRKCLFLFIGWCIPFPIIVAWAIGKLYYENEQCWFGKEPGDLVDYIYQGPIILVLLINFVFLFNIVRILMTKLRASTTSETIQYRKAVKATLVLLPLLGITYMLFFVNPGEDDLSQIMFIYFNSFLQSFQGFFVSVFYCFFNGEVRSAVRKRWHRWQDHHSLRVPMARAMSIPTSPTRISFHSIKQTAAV
- Sequence (P24387 whole entry): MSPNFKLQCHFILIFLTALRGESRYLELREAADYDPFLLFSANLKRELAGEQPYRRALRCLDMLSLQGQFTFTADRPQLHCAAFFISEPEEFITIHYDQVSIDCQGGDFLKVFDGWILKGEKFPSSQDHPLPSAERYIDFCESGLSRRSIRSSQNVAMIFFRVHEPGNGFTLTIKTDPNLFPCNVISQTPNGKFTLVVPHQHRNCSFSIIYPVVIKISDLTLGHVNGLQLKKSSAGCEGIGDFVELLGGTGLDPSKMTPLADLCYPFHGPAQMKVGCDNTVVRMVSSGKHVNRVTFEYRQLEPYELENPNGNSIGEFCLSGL
- Protocol notes: Dose Response confirmation of uHTS hits for small molecule antagonists of the CRF-binding protein and CRF-R2 receptor complex.
- Assay type: functional
- Cond: read-out: IC50_Mean
The source made the active and inactive calls.
Tick one outcome: active, inactive

**Q:** Identify the outcome logged in this assay for the compound shown: "CCOC(=O)C1(C(=O)OCC)CCN(S(=O)(=O)c2ccccc2)CC1"
**A:** inactive

**Q:** Can you check "Cc1cc(SCC(=O)Nc2cccc(S(N)(=O)=O)c2)c(C)cc1Br" next?
**A:** inactive

**Q:** Now the compound "CC(C)CNC(=O)CN1c2cccc3cccc(c23)S1(=O)=O"
**A:** inactive

**Q:** Consider next the compound N#Cc1cccc(C(c2nnnn2C2CCCC2)N2CCCCCC2)c1 (stereo not drawn) in the same way.
**A:** active

**Q:** Again, but for CCC(c1nnnn1C1CCCC1)N1CCN(Cc2ccccc2)CC1 (stereo not drawn)
**A:** active

**Q:** Please answer likewise for "Cc1ccc(S(=O)(=O)NN=Cc2c(O)ccc3ccccc23)cc1"
**A:** inactive

**Q:** Again, but for "COC(=O)c1cc(OC)c(OC)cc1NC(=O)c1c(-c2ccccc2)noc1C"
**A:** active

**Q:** Entry to check: CCCC1=Nc2nc(C)nn2C(c2cccnc2)/C1=C(\O)OCC (stereo not drawn)
**A:** inactive

**Q:** What about COc1ccc(NC(=O)CN2CCC3(O)CCCCC3C2c2cc(OC)ccc2OC)cc1 (stereo not drawn) ?
**A:** inactive

**Q:** Repeat for the following compound: "Nc1nc(-c2ccc3c(c2)OCCO3)cs1"
**A:** inactive

**Q:** // repeat for "Cc1[nH]c(=O)c(C#N)cc1-c1csc(-c2ccccc2)n1" and report
**A:** inactive

**Q:** Same read-out for "Cc1nc(Sc2ccccc2)c(C#N)cc1-c1ccccc1" ?
**A:** active

**Q:** Try this compound next: "Cc1cc2nc(C)n(CCCN)c2cc1C.Cl"
**A:** inactive
